# Test system: ERK3;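 note: KINOMEscan kinase panel screen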
# Construct: gene MAPK6
# condition_notes: concentration: 1 μM, replicates: in singlicate; n = 1
The reader will find reported %Inh values listed item by item below.

Example entries and their recorded answers appear below.
O=c1cc(N2CCOCC2)nc2n(Cc3ccc(F)c(Cl)c3)ccn12: 0%
Cc1nn2c(=O)cc(N3CCOCC3)nc2n1Cc1cccc(Cl)c1Cl: 0%
Cc1cccc(-c2cc(-c3c[nH]nc3-c3ccccn3)ccn2)c1: 0%

*Q* Give the reported value of %Inh for this record: `CN1C(=O)C(Nc2ccccc2)=C(c2ccccc2)C1=O`
*A* 9%

*Q* Give the reported value of %Inh for this record: `O=C(Nc1n[nH]c2nc(-c3ccccc3)c(Cl)cc12)C1CC1`
*A* 0%

*Q* Give the reported value of %Inh for this record: `Cn1c(=O)c(F)c(Nc2ccc(I)cc2F)c2c(=O)n(OC[C@H](O)CO)cnc21`
*A* 9%

*Q* Give the reported value of %Inh for this record: `CN1C(=O)C(Nc2cc(Cl)c(O)c(Cl)c2)=C(c2ccc(Cl)cc2)C1=O`
*A* 0%

*Q* Give the reported value of %Inh for this record: `CCC(=O)c1c(-c2ccccc2)c2cc(Cl)ccc2c(=O)n1Cc1cc(S(C)(=O)=O)n(CC(N)=O)n1`
*A* 0%

*Q* Give the reported value of %Inh for this record: `COC(=O)c1c(-c2ccccc2)c2cc(Br)ccc2c(=O)n1Cc1ccc(NC(=O)CCC(=O)O)cc1`
*A* 3%

*Q* Give the reported value of %Inh for this record: `COc1cc(Nc2ccnc3ccc(C(F)(F)F)cc23)cc(OC)c1OC`
*A* 0%

*Q* Give the reported value of %Inh for this record: `FC(F)(F)c1ccc(-c2ncn(CCCN3CCOCC3)c2-c2ccncc2)cc1`
*A* 7%

*Q* Give the reported value of %Inh for this record: `O=C1NC(=O)C(c2ccccc2)=C1Nc1cccc(O)c1`
*A* 0%

*Q* Give the reported value of %Inh for this record: `Cc1ccc(-c2ccc3c(ccc4sc5c(c43)NC[C@@H](C)N=C5N(C)C)n2)cn1`
*A* 1%

*Q* Give the reported value of %Inh for this record: `COC(=O)c1c(-c2ccccc2)c2cc(Br)ccc2c(=O)n1Cc1ccc(S(C)(=O)=O)cc1`
*A* 4%

*Q* Give the reported value of %Inh for this record: `CCC(=O)c1c(-c2ccccc2)c2cc(Cl)ccc2c(=O)n1Cc1cc(S(C)(=O)=O)n(CC(F)F)n1`
*A* 0%
